method-description: Inhibition of dengue virus 3 NS2B-NS3 serine protease assessed as reduction in hydrolysis of Boc-Gly-Arg-Arg-7-amino-4-methylcumarin substrate
Design: species or system dengue virus type 3
observable: IC50 (µM)
Report the value in µM with no unit label.

Known IC50 results, listed for orientation:
molecule	IC50 (µM)
O.O=c1c(O)c(-c2ccc(O)c(O)c2)oc2cc(O)cc(O)c12 [QUERCETIN DIHYDRATE]	22.7
O=c1c(O[C@@H]2O[C@H](CO)[C@@H](O)[C@H](O)[C@H]2O)c(-c2ccc(O)c(O)c2)oc2cc(O)cc(O)c12	42.4
C[C@@H]1O[C@@H](Oc2c(-c3ccc(O)c(O)c3)oc3cc(O)cc(O)c3c2=O)[C@H](O)[C@H](O)[C@H]1O	32
O=c1c(O)c(-c2ccc(O)cc2)oc2cc(O)cc(O)c12	27.7

Turning to the following molecule.
### Prompt Give the measured IC50 of O=c1c(O)c(-c2cc(O)c(O)c(O)c2)oc2cc(O)cc(O)c12 .
### Response 29.3

---

method-description: Inhibition of dengue virus 2 NS2B-NS3 serine protease assessed as reduction in hydrolysis of Boc-Gly-Arg-Arg-7-amino-4-methylcumarin substrate
Design: species or system dengue virus type 2
Simple rule here: IC50 less than 40 µM is criterion met, otherwise criterion not met.

Look over these answered cases.
compound	label
O=c1c(O)c(-c2ccc(O)cc2)oc2cc(O)cc(O)c12	criterion met
C[C@@H]1O[C@@H](Oc2c(-c3ccc(O)c(O)c3)oc3cc(O)cc(O)c3c2=O)[C@H](O)[C@H](O)[C@H]1O	criterion not met
O=c1c(O)c(-c2cc(O)c(O)c(O)c2)oc2cc(O)cc(O)c12	criterion met

### Prompt Would you kindly verify if IC50 of O.O=c1c(O)c(-c2ccc(O)c(O)c2)oc2cc(O)cc(O)c12 [QUERCETIN DIHYDRATE] is strictly less than 40 µM?
### Response criterion met

### Prompt Would you kindly verify if IC50 of O=c1c(O[C@@H]2O[C@H](CO)[C@@H](O)[C@H](O)[C@H]2O)c(-c2ccc(O)c(O)c2)oc2cc(O)cc(O)c12 is strictly less than 40 µM?
### Response criterion not met

---

method-description: Binding affinity to NT-647-NHS fluorescent dye-labeled dengue virus 3 NS2B-NS3 serine protease incubated for 10 mins by microscale thermophoresis method
Set-up: species or system dengue virus type 3
observable: pKd
pKd is defined as minus the log10 of a concentration measured in mol/L.

### Prompt Give the measured pKd of O.O=c1c(O)c(-c2ccc(O)c(O)c2)oc2cc(O)cc(O)c12 [QUERCETIN DIHYDRATE] .
### Response 4.70

---

method-description: Inhibition of dengue virus 3 NS2B-NS3 serine protease assessed as reduction in hydrolysis of Boc-Gly-Arg-Arg-7-amino-4-methylcumarin substrate by Dixon plot
Parameters: species or system dengue virus type 3
observable: Ki (µM)
Report the value in µM with no unit label.

molecule	observable	recorded-measurement
O=c1c(O[C@@H]2O[C@H](CO)[C@@H](O)[C@H](O)[C@H]2O)c(-c2ccc(O)c(O)c2)oc2cc(O)cc(O)c12	Ki	37.1

### Prompt Give the measured Ki of O=c1c(O)c(-c2ccc(O)cc2)oc2cc(O)cc(O)c12 .
### Response 24.2

### Prompt Give the measured Ki of C[C@@H]1O[C@@H](Oc2c(-c3ccc(O)c(O)c3)oc3cc(O)cc(O)c3c2=O)[C@H](O)[C@H](O)[C@H]1O .
### Response 28

### Prompt Give the measured Ki of O.O=c1c(O)c(-c2ccc(O)c(O)c2)oc2cc(O)cc(O)c12 [QUERCETIN DIHYDRATE] .
### Response 19.9

### Prompt Give the measured Ki of O=c1c(O)c(-c2cc(O)c(O)c(O)c2)oc2cc(O)cc(O)c12 .
### Response 25.7
